Target: T1, human GIP receptor (human, UniProt P48546 22-466)
T1 sequence (looked up): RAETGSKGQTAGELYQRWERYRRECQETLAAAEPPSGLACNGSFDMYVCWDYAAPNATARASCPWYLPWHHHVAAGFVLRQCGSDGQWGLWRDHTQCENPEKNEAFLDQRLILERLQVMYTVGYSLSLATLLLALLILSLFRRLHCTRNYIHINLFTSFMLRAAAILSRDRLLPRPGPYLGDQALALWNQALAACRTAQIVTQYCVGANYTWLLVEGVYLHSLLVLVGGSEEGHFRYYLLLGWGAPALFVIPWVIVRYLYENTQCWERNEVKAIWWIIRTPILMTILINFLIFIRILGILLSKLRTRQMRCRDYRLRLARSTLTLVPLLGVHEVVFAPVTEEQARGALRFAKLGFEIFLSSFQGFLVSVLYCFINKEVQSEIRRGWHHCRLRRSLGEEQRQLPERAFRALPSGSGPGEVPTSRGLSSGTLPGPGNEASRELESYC
Assay: cell-based or functional assay
Starred links: 1 amine or outer side, 2 acyl side, 3 side chain; linkers in the order of their positions; H or OH if unused. Non-standard residues stand in square brackets, D forms with d. Groups on a side chain read outwards from the residue. No end group written: not given here. *: point of attachment. C20 diacid = O=C(O)CCCCCCCCCCCCCCCCCCC(=O)*; γGlu = O=C(O)[C@H](CCC(=O)[*:2])N[*:1]; εLys = N[C@@H](CCCCN[*:1])C(=O)[*:2]; Aib = CC(C)(N)C(=O)O
Classes (EC50, CreLuc assay, 0.5% hP): LOW: < 0.2 nM; MEDIUM: ≥ 0.2 nM and < 0.3 nM; HIGH: ≥ 0.3 nM

{"binder": "YXDGTFTSDYSIXLEKQAQXAFVEWLIKGGPSSGASLRHYYNWLTRQRY (Aib at 2, 13, 20; K28 side chain: C20DA-gGlu-gGlu-gGlu-gGlu-gGlu-gGlu-eLys; C-terminal NH2) [Compound 87]", "discreteLabel": "HIGH"}
{"binder": "YXEGTFTSDYSIXLEKQAQXAFVEWLIKGGPRYYASLRHYYNWLTRQRY (Aib at 2, 13, 20; K28 side chain: C20DA-gGlu-gGlu-gGlu-gGlu-gGlu-gGlu-eLys; C-terminal NH2) [Compound 62]", "discreteLabel": "HIGH"}
{"binder": "YXEGTFTSDYSIXLEKQAQXAFVEWLIKGGPSSGADLRHYLNWLTRQRY (Aib at 2, 13, 20; K28 side chain: C20DA-gGlu-gGlu-gGlu-gGlu-gGlu-gGlu-eLys; C-terminal NH2) [Compound 72]", "discreteLabel": "MEDIUM"}
{"binder": "Y[Aib]EGTFTSDYSI[Aib]LEKQAQ[Aib]AFVQWLIKGGQRYYASLRHYYNWLTRQRY-NH2 (not fully specified (residue 28); also: TFA salt) [Compound 6]", "discreteLabel": "HIGH"}
{"binder": "YXEGTFTSDYSIXLEKQAQXAFVEWLIKGGPSSPESXRHYYNWLTRQRY (Aib at 2, 13, 20, 37; K28 side chain: C20DA-gGlu-gGlu-gGlu-gGlu-gGlu-gGlu-eK; C-terminal NH2) [Compound 10]", "discreteLabel": "LOW"}
{"binder": "YXEGTFTSDYSIXLEKQAQXAFVEWLIKGGPSSGASLRHYYNLXTRQRY (Aib at 2, 13, 20, 44; K28 side chain: C20DA-gGlu-gGlu-gGlu-gGlu-gGlu-gGlu-eLys; C-terminal NH2) [Compound 79]", "discreteLabel": "MEDIUM"}
{"binder": "Y[Aib]EGTFTSDYSI[Aib]LEKQAQ[Aib]AFVQWLIK([εLys-γGlu-γGlu-γGlu-γGlu-γGlu-C20 diacid])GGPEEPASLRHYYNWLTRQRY-NH2 (also: TFA salt) [Compound 67]", "discreteLabel": "MEDIUM"}
{"binder": "YXEGTFTSDYSIXLEKQAQXAFVEWLIKGGPSSGVSXRHYYNWLTRQRY (Aib at 2, 13, 20, 37; K28 side chain: C20DA-gGlu-gGlu-gGlu-gGlu-gGlu-gGlu-eLys; C-terminal NH2) [Compound 38]", "discreteLabel": "LOW"}
{"binder": "YXEGTFTSDYSIXLEKQAQXAFVEWLIKGGPSSAVSLRHYYNWLTRQRY (Aib at 2, 13, 20; K28 side chain: C20DA-gGlu-gGlu-gGlu-gGlu-gGlu-gGlu-eLys; C-terminal NH2) [Compound 33]", "discreteLabel": "MEDIUM"}
{"binder": "YXEGTFTSDYSIXLEKQAQXAFVQWLIKGGPESPASLRHYYNWLTRQRY (Aib at 2, 13, 20; K28 side chain: C20DA-gGlu-gGlu-gGlu-gGlu-gGlu; C-terminal NH2) [Compound 11]", "discreteLabel": "LOW"}
{"binder": "YXEGTFTSDYSIXLEKQAQXAFVEWLIKGGPSSGASLRHYYNRXTRQRY (Aib at 2, 13, 20, 44; K28 side chain: C20DA-gGlu-gGlu-gGlu-gGlu-gGlu-gGlu-eLys; C-terminal NH2) [Compound 68]", "discreteLabel": "HIGH"}
